Recorded measurements of pIC50, one per entry
Target: UniProt P56817
Test: In Vitro Enzymatic BACE FRET (Fluorescence Resonance Energy Transfer) Assay
Format: biochemical
Conditions: read-out: BACE1 FRET assay
pIC50: −log10 of the molar value.
test.readout: pIC50

INSERT INTO measurements (compound, test_readout, assay_result) VALUES
  ('CC(C)(C)OC(=O)Cc1ccc2c(c1)[C@]1(COC(N)=N1)c1cc(-c3cncnc3)ccc1O2', 'pIC50', '6.00 to 7.00'),
  ('CC1(C)CC(c2cc(F)c3c(c2)[C@]2(COC(N)=N2)c2cc(-c4cncnc4)ccc2O3)=CCO1', 'pIC50', '> 7.00'),
  ('NC1=N[C@]2(CO1)c1cc(C3=CCOCC3)ccc1Oc1cc(F)c(-c3cncnc3)cc12', 'pIC50', '> 7.00'),
  ('COC(C)(C)C#Cc1cnc2c(c1)[C@@]1(COC(N)=N1)c1cc(-c3ccncc3)ccc1O2', 'pIC50', '< 5.30'),
  ('COc1ncc(-c2ccc3c(c2)[C@@]2(COC(N)=N2)c2cc(OCC(C)(C)C)ccc2O3)cn1', 'pIC50', '6.00 to 7.00'),
  ('Cn1cc(-c2cc(F)c3c(c2)[C@]2(COC(N)=N2)c2cc(-c4cncnc4)ccc2O3)cn1', 'pIC50', '> 7.00'),
  ('NC1=N[C@]2(CO1)c1cc(-c3cncnc3)ccc1Oc1cccnc12', 'pIC50', '6.00 to 7.00'),
  ('CC(C)(C)COc1ccc2c(c1)[C@]1(COC(N)=N1)c1cc(C3=CC4CCC3C4)ccc1O2 (stereo partly shown)', 'pIC50', '> 7.00'),
  ('NC1=N[C@@]2(CO1)c1cc(-c3cccnc3)ccc1Oc1cnc(N3CCNCC3)cc12', 'pIC50', '> 7.00'),
  ('NC1=N[C@@]2(CO1)c1cc(Oc3ccccn3)ccc1Oc1ncc(Br)cc12', 'pIC50', '< 5.30'),
  ('NC1=N[C@]2(CO1)c1cc(OC3COC3)ccc1Oc1ccc(-c3cncnc3)cc12', 'pIC50', '6.00 to 7.00'),
  ('CC(C)(C)COc1ccc2c(c1)[C@]1(COC(N)=N1)c1cc(-c3ccc(=O)[nH]c3)ccc1O2', 'pIC50', '6.00 to 7.00'),
  ('NC1=N[C@]2(CO1)c1cc(C3=CCOCC3)ccc1Oc1cnc(-c3cccnc3F)cc12', 'pIC50', '> 7.00'),
  ('CC1(C)C=C(c2cnc3c(c2)[C@]2(COC(N)=N2)c2cc(-c4cncnc4)ccc2O3)CCO1', 'pIC50', '> 7.00'),
  ('NC1=N[C@@]2(CO1)c1cc(-c3cc(Cl)ccc3F)ccc1Oc1ncc(N3CCOCC3)cc12', 'pIC50', '> 7.00'),
  ('COc1cc(-c2cc3c(cn2)Oc2ccc(-c4cccnc4F)cc2[C@@]32COC(N)=N2)ccn1', 'pIC50', '> 7.00');

* * *

We begin with a simple list: items and their reported IC50.
Target: UniProtKB P56817
Assay: In Vitro Enzymatic BACE FRET (Fluorescence Resonance Energy Transfer) Assay
Assay type: biochemical
Settings: Table III; IC50's in uM ranges; read-out: BACE1 FRET assay
test.readout: IC50

INSERT INTO assay_data (compound, assay_result) VALUES
  ('CC1(COc2ccc3c(c2)[C@]2(COC(N)=N2)c2cc(-c4cccnc4)cnc2O3)COC1 [compound 165]', '< 0.1 µM'),
  ('CC(C)(C)COc1ccc2c(c1)[C@]1(COC(N)=N1)c1cc(C(=O)N3CCCC3)ccc1O2 [218b]', '0.1 to 1 µM'),
  ('NC1=N[C@]2(CO1)c1cc(Oc3ccccn3)ccc1Oc1ccc(-c3cccnc3)cc12 [compound 207]', '0.1 to 1 µM'),
  ('CC(C)(C)CC(O)c1ccc2c(c1)[C@]1(COC(N)=N1)c1cc(-c3ccc(F)nc3)ccc1O2 (stereo partly shown) [162a]', '0.1 to 1 µM'),
  ('CC(C)(C)COc1ccc2c(c1)[C@]1(COC(N)=N1)c1cc(-c3cnccn3)ccc1O2 [Example 131]', '< 0.1 µM'),
  ('COC(C)(C)C#Cc1ccc2c(c1)C1(COC(N)=N1)c1cc(C#CC(C)(C)OC)ccc1O2 [Example 119]', '0.1 to 1 µM'),
  ('CC(C)(F)COc1ccc2c(c1)[C@]1(COC(N)=N1)c1cc(-c3cncnc3)cnc1O2 [compound 176]', '< 0.1 µM'),
  ('COc1ccc2c(c1)[C@@]1(COC(N)=N1)c1cc(-c3cncnc3)cc(F)c1O2 [152b]', '1 to 5 µM'),
  ('CC(C)(C)CCc1ccc2c(c1)[C@@]1(COC(N)=N1)c1cc(-c3cccnc3)cnc1O2 [compound 161]', '< 0.1 µM'),
  ('NC1=N[C@@]2(CO1)c1cc(-c3cccnc3)ccc1Oc1ncc(-c3cccnc3)cc12 [compound 203]', '0.1 to 1 µM'),
  ('COC(C)(C)C#Cc1ccc2c(c1)[C@]1(COC(N)=N1)c1cc(-c3cccnc3)cnc1O2 [208b]', '< 0.1 µM'),
  ('COc1cc2c(cc1F)Oc1ccc(-c3cncnc3)cc1[C@]21COC(N)=N1 [154a]', '> 5 µM'),
  ('C[C@H]1OC(N)=N[C@@]12c1cc(OCC(C)(C)C)ccc1Oc1ccc(-c3cncnc3)cc12 [126d]', '< 0.1 µM'),
  ('COC(C)(C)CCc1ccc2c(c1)[C@]1(COC(N)=N1)c1cc(-c3cncnc3)ccc1O2 [Example 122]', '< 0.1 µM'),
  ('NC1=N[C@]2(CO1)c1cc(Oc3ccccn3)ccc1Oc1ccc(-c3cncnc3)cc12 [compound 209]', '< 0.1 µM'),
  ('COC(=O)/C=C/c1ccc2c(c1)[C@@]1(COC(N)=N1)c1cc(Br)ccc1O2 [compound 169]', '1 to 5 µM');

* * *

Target: BACE1 (Homo sapiens, UniProt P56817)
Sequence (P56817 46-501, species assumed): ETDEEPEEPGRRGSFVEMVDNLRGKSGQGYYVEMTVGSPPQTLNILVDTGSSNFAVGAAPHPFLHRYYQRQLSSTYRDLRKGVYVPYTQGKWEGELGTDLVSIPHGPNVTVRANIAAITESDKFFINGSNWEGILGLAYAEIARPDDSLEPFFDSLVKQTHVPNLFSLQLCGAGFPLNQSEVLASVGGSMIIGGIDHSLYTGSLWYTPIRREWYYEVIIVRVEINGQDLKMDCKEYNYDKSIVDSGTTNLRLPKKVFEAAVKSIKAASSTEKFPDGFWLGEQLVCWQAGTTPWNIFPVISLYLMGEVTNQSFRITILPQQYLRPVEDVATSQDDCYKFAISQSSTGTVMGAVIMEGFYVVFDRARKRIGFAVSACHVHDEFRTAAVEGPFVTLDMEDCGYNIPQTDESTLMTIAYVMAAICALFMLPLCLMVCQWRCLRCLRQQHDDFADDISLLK
Assay: In Vitro BACE Cell-based Assay (HEK cell assay): Aβ40 in conditioned medium of cells stably expressing Amyloid Precursor Protein, sandwich ELISA
Details: HEK cells; read-out: HEK cell assay
test.readout: IC50

INSERT INTO assay_data (compound, test_readout, assay_result) VALUES
  ('CC1(COc2cnc3c(c2)[C@]2(COC(N)=N2)c2cc(-c4ccccc4F)ccc2O3)COC1', 'IC50', '< 0.1 µM'),
  ('NC1=N[C@@]2(CO1)c1cc(-c3cncnc3)ccc1Oc1c(F)cc(OCC3CC3(F)F)cc12 (some centres unmarked)', 'IC50', '< 0.1 µM'),
  ('Cn1cc(-c2cc(F)c3c(c2)[C@]2(COC(N)=N2)c2cc(-c4cccnc4)ccc2O3)cn1', 'IC50', '< 0.1 µM'),
  ('CC(C)(C)OC(=O)n1cccc1-c1ccc2c(c1)[C@@]1(COC(N)=N1)c1cccc(F)c1O2', 'IC50', '1 to 5 µM'),
  ('CC1(C)CN(c2ccc3c(c2)[C@]2(COC(N)=N2)c2cc(-c4cccnc4F)ccc2O3)CCO1', 'IC50', '< 0.1 µM'),
  ('CC1(C)CN(c2cc(F)c3c(c2)[C@]2(COC(N)=N2)c2cc(-c4cncnc4)ccc2O3)CCO1', 'IC50', '< 0.1 µM'),
  ('NC1=N[C@@]2(CO1)c1cc(-c3cccnc3)ccc1Oc1cnc(N3CCC(=O)CC3)cc12', 'IC50', '< 0.1 µM'),
  ('NC1=N[C@@]2(CO1)c1cc(-c3cccnc3)ccc1Oc1cnc(N)cc12', 'IC50', '0.1 to 1 µM');

* * *

Each entry below carries its recorded pIC50.
Target: BACE1 (Homo sapiens, UniProt P56817)
Assay: In Vitro Enzymatic BACE FRET (Fluorescence Resonance Energy Transfer) Assay
Format: biochemical
Settings: read-out: BACE1 FRET assay
pIC50: −log10 of the molar value.
test.readout: pIC50

INSERT INTO results (smi, assay_result) VALUES
  ('CC(C)(C)COc1ccc2c(c1)[C@]1(COC(N)=N1)c1cc(-c3ccc(C#N)cc3)ccc1O2', '6.00 to 7.00'),
  ('CC(C)(C)CCOc1nccc2c1[C@]1(COC(N)=N1)c1cc(-c3cccnc3)ccc1O2', '6.00 to 7.00'),
  ('CC(=O)c1cccc(-c2ccc3c(c2)[C@@]2(COC(N)=N2)c2cc(OCC(C)(C)C)ccc2O3)c1', '6.00 to 7.00'),
  ('NC1=N[C@@]2(CO1)c1cc(-c3cncnc3)ccc1Oc1ncc(C#CC3CC3)cc12', '> 7.00'),
  ('COC(C)(C)COc1ccc2c(c1)[C@@]1(COC(N)=N1)c1cc(-c3cccnc3)cnc1O2', '> 7.00'),
  ('NC1=N[C@]2(CO1)c1ccccc1Oc1ccc(-c3cccnc3)cc12', '6.00 to 7.00'),
  ('CC1(C)CC(=O)N(c2ccc3c(c2)[C@]2(COC(N)=N2)c2cc(-c4cccnc4)ccc2O3)C1', '> 7.00'),
  ('CC(C)C[C@@H]1CN(c2ccc3c(c2)[C@]2(COC(N)=N2)c2cc(-c4cncnc4)ccc2O3)CCO1', '6.00 to 7.00');
